- Assayed System: recombinant human FLAP protein (Homo sapiens)
- Sequence (P20292 whole entry): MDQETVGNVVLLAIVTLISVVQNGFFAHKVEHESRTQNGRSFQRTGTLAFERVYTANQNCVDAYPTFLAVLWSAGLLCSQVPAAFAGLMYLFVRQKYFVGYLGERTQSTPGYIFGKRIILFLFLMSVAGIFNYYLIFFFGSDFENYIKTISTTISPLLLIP
- Protocol Text: FLAP binding assay (SPA, displacement of [125I]L-691,831)
- Conditions: membranes of sf9 cells expressing human FLAP, [125I]L-691,831 probe; read-out: hFLAP binding IC50
Outcome Measure: pIC50
Reminder that pIC50 is minus the log10 of a molar concentration.

Compound: Cc1nc(-c2ccc(NC(=O)C(c3ccc(-c4cnc(N)nc4)cc3)C3CCCC3)nc2)cs1 (centres unmarked) [Example 248]
Outcome Measure: pIC50
Observed Measurement: 6.62
//
Compound: Cn1cnc(-c2ccc(NC(=O)C3(c4ccc(-c5cnc(N)nc5)cc4)CCOCC3)nc2)c1 [Example 144]
Outcome Measure: pIC50
Observed Measurement: 7.18

Input: Please give measured pIC50 of the following entry: Nc1ncc(-c2ccc(C3(C(=O)Nc4ccc(-c5cn[nH]c5)cn4)CCC3)cc2)cn1 [Example 104]
Output: 8.71

Input: Please give measured pIC50 of the following entry: CC(C)(C)c1nsc(NC(=O)C2(c3ccc(-c4cnc(N)nc4)cc3)CCOCC2)n1 [Example 124]
Output: 7.11
